Target: HiBit-BRG1 fusion protein in stable HeLa cell line expressing HiBit-BRG1 and LgBit (Homo sapiens)
Construct: expressed in transfected cells
Sequence (P51532 whole entry, the tested form may be a part): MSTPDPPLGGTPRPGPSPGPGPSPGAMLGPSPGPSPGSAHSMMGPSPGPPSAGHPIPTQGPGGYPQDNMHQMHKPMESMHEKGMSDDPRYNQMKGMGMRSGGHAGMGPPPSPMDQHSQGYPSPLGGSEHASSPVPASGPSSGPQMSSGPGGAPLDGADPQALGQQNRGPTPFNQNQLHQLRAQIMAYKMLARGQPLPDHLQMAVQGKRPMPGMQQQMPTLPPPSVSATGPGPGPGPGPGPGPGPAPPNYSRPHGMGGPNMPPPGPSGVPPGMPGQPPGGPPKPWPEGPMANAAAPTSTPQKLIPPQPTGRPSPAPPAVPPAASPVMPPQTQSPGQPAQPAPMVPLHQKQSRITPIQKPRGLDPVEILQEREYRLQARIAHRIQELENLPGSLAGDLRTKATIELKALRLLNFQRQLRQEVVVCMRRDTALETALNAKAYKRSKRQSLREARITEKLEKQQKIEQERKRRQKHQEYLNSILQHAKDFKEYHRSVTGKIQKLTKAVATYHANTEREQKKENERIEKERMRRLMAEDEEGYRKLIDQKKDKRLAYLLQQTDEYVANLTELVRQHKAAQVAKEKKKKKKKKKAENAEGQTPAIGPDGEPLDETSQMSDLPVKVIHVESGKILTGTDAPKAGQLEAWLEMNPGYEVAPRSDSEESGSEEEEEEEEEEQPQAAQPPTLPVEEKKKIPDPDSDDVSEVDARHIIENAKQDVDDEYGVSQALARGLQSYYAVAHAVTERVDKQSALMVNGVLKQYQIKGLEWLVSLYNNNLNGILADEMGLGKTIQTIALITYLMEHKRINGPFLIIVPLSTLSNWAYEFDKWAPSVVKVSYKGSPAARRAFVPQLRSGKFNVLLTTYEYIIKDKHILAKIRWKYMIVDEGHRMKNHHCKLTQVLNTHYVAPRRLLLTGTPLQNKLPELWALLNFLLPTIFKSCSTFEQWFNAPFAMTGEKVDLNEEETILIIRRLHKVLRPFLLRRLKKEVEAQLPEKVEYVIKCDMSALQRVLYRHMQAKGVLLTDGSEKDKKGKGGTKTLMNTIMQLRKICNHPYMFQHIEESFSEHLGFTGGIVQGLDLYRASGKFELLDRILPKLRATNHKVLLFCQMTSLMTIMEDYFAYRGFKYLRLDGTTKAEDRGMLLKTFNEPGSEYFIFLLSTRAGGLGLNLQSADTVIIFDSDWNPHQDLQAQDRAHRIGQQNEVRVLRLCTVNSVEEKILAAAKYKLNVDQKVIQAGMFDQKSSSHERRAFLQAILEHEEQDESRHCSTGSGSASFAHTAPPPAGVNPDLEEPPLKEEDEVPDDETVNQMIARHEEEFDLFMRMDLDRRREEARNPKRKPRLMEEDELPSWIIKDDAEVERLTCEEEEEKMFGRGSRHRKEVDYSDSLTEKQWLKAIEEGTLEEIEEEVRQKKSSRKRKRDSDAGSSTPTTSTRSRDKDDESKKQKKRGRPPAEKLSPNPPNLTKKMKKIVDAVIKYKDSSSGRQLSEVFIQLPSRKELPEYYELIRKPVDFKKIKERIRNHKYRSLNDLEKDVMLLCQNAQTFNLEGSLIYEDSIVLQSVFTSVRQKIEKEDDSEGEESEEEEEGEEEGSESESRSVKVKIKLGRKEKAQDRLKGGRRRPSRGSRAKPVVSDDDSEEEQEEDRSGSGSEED
Experiment: HiBiT-BRG1 cell-based degradation assay (Nano-Glo HiBiT, 24 h)
Conditions: HeLa HiBit-BRG1/LgBit cells, read-out: BRMG1 HiBit Degradation IC50
Examples of compounds with documented DC50 follow.

Here are 2 compounds together with their reported answers.
Cc1ncsc1-c1ccc([C@H](C)NC(=O)[C@@H]2C[C@@H](O)CN2C(=O)[C@@H](c2cc(N3CCOC4(CN(c5ccc6cc(-c7ccccc7O)nnc6c5)C4)C3)no2)C(C)C)cc1
< 10 nM
Cc1ncsc1-c1ccc([C@H](C)NC(=O)[C@@H]2C[C@@H](O)CN2C(=O)[C@@H](c2cc(N3CCCC4(CN(c5ccc6nnc(-c7ccccc7O)cc6c5)C4)C3)no2)C(C)C)cc1
> 10 nM

## Input For Cc1ncsc1-c1ccc([C@H](C)NC(=O)[C@@H]2C[C@@H](O)CN2C(=O)[C@@H](c2cc(N3CC4(CN(c5ccc6cc(-c7ccccc7O)nnc6c5)CCO4)C3)no2)C(C)C)cc1 , what is its reported DC50?
## Output < 10 nM
